Values were extracted from the supplement of paper PMC11537057.

# System: A549 infected with HSV-1
# measurement description: cell number in HSV-1-infected wells relative to infected DMSO wells (H2B-RFP signal); higher = more surviving cells (uninfected or antiviral-protected wells give about 200%; low = toxicity)
# assay context: 10 µM; 48 h; MOI: 0.1
Over roughly 1,700 compounds, “cell number in HSV-1-infected wells relative to infected DMSO wells (H2B-RFP signal)” has its median near 100; the highest 2% begin near 140. The entries come from a sample that favours the highest values as a whole.
cell number in HSV-1-infected wells reference
Field: numeric (%). Do not append units.

compound	tested on	unit string	cell number in HSV-1-infected wells
O=C(NCC(O)CO)c1c(I)c(C(=O)NCC(O)CO)c(I)c(N(CCO)C(=O)CO)c1I (configuration not stated) [Ioversol]	A549 infected with HSV-1	%	146
Cc1ncc([N+](=O)[O-])n1CC(C)O (configuration not stated) [Secnidazole]	A549 infected with HSV-1	%	99.4
Cc1onc(-c2ccccc2Cl)c1C(=O)N[C@@H]1C(=O)N2[C@@H]1SC(C)(C)[C@@H]2C(=O)O [Cloxacillin Sodium]	A549 infected with HSV-1	%	114
COCC(=O)Nc1c(I)c(C(=O)NCC(O)CO)c(I)c(C(=O)N(C)CC(O)CO)c1I (configuration not stated) [Iopromide]	A549 infected with HSV-1	%	111
COC(=O)N(C)c1c(N)nc(-c2nn(Cc3ccccc3F)c3ncccc23)nc1N [Riociguat (BAY 63-2521)]	A549 infected with HSV-1	%	108

Form field: reported cell number in HSV-1-infected wells of CC(=O)N(CC(O)CN(C(C)=O)c1c(I)c(C(=O)NCC(O)CO)c(I)c(C(=O)NCC(O)CO)c1I)c1c(I)c(C(=O)NCC(O)CO)c(I)c(C(=O)NCC(O)CO)c1I (configuration not stated) [Iodixanol]
79.6

What do we get for CCOc1ccc(Cc2cc([C@@H]3O[C@H](SC)[C@@H](O)[C@H](O)[C@H]3O)ccc2Cl)cc1 [Sotagliflozin (LX4211)] ?
61.7

---

# Tested on: A549 infected with HSV-1
# measurement description: cell number in HSV-1-infected wells relative to infected DMSO wells (H2B-RFP signal); higher = more surviving cells (uninfected or antiviral-protected wells give about 200%; low = toxicity)
# assay context: 10 µM; 48 h; MOI: 0.1
Where a name gives a salt, the structure may show the parent alone. Over roughly 1,700 compounds, “cell number in HSV-1-infected wells relative to infected DMSO wells (H2B-RFP signal)” has its median near 100; the highest 2% begin near 140. Many of the other results were omitted from the sample, so the highest values are more common in it than they were.
property: cell number in HSV-1-infected wells
# output: numeric value plus its unit

Example cases with answers are listed next.
compound	cell number in HSV-1-infected wells
CN[C@H]1C(=O)N[C@@H]2Cc3ccc(cc3)Oc3cc4cc(c3O[C@@H]3O[C@H](C(=O)O)[C@@H](O)[C@H](O)[C@H]3NC(=O)CCCCCCCCC(C)C)Oc3ccc(cc3Cl)[C@@H](O)[C@@H]3NC(=O)[C@H](NC(=O)[C@@H]4NC(=O)[C@@H](NC2=O)c2cc(cc(O)c2Cl)Oc2cc1ccc2O)c1ccc(O)c(c1)-c1c(O[C@H]2O[C@H](CO)[C@@H](O)[C@H](O)[C@@H]2O)cc(O)cc1[C@@H](C(=O)NCCCN(C)C)NC3=O	125%
CC(C)OC(=O)[C@H](C)N[P@](=O)(CO[C@H](C)Cn1cnc2c(N)ncnc21)Oc1ccccc1 [Tenofovir Alafenamide (GS-7340)]	189%
Cn1nnc(-c2ccc(-c3ccc(N4C[C@H](CO)OC4=O)cc3F)cn2)n1	104%
CCCCC(CC)COC(=O)C(C#N)=C(c1ccccc1)c1ccccc1 (stereo not given)	115%

In the following, a different compound is considered.
# query: cell number in HSV-1-infected wells of entry COc1cc2c(cc1OC)[C@H]1C[C@@H](OC(=O)[C@@H](N)C(C)C)[C@H](CC(C)C)CN1CC2 [Valbenazine tosylate]
134%
